molecular target: SARS-CoV-2 full length spike protein, V483A mutant (SARS-CoV-2, UniProt P0DTC2 14-1273)
Measured parameter: median fluorescence fold over isotype control (fold over isotype)
// return numeric value only (unit: fold over isotype, not printed)

Binder: antibody 446 (antibody, V domains shown) VH: QVQLVESGGGVVQPGRSLRLSCAASGFTFSSYAMHWVRQAPGKGLEWVAVISYDGSNKYYADSVKGRFTISRDNSKNTLYLQMNSLRAEDTAVYYCARPNSGSYFGYFQHWGQGTLVTVSS VL: QSVLTQPPSVSGAPGQRVTISCTGSSSNIGAGYDVHWYQQLPGTAPKLLIYGNSNRPSGVPDRFSGSKSGTSASLAITGLQAEDEADYYCQSYDSSLSGFYVFGTGTKVTVL
Reported measurement: 6.16

Exercise: Answer with the recorded median fluorescence fold over isotype control for the binder listed here: antibody 450 (antibody, V domains shown) VH: EVQLVESGGGLVQPGGSLRLSCAASEFTFSSYWMSWVRQAPGKGLEWVANIKQDGSEKYYVDSVKGRFTISRDNAKNSLYLQMNSLRAEDTAVYYCARVGEYSGYDLFFDYWGQGTLVTVSS VL: NFMLTQPHSVSESPGKTVTISYTGSSGSIASNYVQWYQQRPGSAPTTVIYEDNQRPSGVPDRFSGSIDSSSNSASLTISGLKTEDEADYYCQSYDSSNQGVFGGGTKLTVL
Key: 1.27
